Target: BRD4(1) (Homo sapiens)
Construct: T7 phage strains displaying bromodomains were grown in parallel
Experiment: BROMOscan BromoKdMAX
Experimental: A BromoKdMAX was performed at DiscoverX. The assay principle is the following: BROMOscan™ is a novel industry leading platform for identifying small molecule bromodomain inhibitors. Based on proven KINOMEscan™ technology, BRO-MOscan™ employs a proprietary ligand binding site-directed competition assay to quantitatively measure interactions between test compounds and bromodomains. […]
pKd: −log10 of the molar value.

{"MOLECULE": "CO[C@H]1CC[C@H](n2c([C@@H]3CCCC(=O)N3c3ccc(F)c(F)c3)nc3cc(-c4c(C)noc4C)ccc32)CC1 [CCS1477]", "pKd": 6.60}

* * *

Attribute: Kd
Biological target: SMARCA4 (Homo sapiens, UniProt P51532)
Construct: T7 phage strains displaying bromodomains were grown in parallel
Sequence (P51532 1453-1564 limits assumed): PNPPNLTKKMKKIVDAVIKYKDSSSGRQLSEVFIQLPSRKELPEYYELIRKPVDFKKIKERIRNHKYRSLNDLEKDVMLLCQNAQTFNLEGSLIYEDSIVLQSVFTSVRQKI
Assay: BROMOscan BromoKdMAX

{"RECORD SMILES": "CC(=O)N1C[C@H](c2nc(Nc3cccc(-c4cn(C)nn4)c3)cc(-c3cnccn3)n2)CC[C@@H]1C", "Kd": "> 10 µM"}
{"RECORD SMILES": "CO[C@H]1CC[C@H](n2c([C@@H]3CCCC(=O)N3c3ccc(F)c(F)c3)nc3cc(-c4c(C)noc4C)ccc32)CC1", "Kd": "> 10 µM"}

* * *

Molecular target: PCAF (Homo sapiens, UniProt Q92831)
Construct: T7 phage strains displaying bromodomains were grown in parallel
Sequence (Q92831 723-827 limits assumed): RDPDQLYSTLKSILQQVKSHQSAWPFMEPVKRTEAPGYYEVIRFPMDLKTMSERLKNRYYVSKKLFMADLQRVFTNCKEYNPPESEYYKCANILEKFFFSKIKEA
Assay: BROMOscan BromoKdMAX
pKd: −log10 of the molar value.

{"COMPOUND": "CO[C@H]1CC[C@H](n2c([C@@H]3CCCC(=O)N3c3ccc(F)c(F)c3)nc3cc(-c4c(C)noc4C)ccc32)CC1 [CCS1477]", "pKd": "< 5.00"}

* * *

Target: BRD4(2) (Homo sapiens)
Construct: T7 phage strains displaying bromodomains were grown in parallel
Assay: BROMOscan BromoKdMAX

{"RECORD SMILES": "CO[C@H]1CC[C@H](n2c([C@@H]3CCCC(=O)N3c3ccc(F)c(F)c3)nc3cc(-c4c(C)noc4C)ccc32)CC1", "TEST SYSTEM": "BRD4(2) (Homo sapiens)", "Kd (µM)": 5.2}

* * *

Target: CBP bromodomain (Homo sapiens)
Sequence (Q92793 1085-1192 limits assumed): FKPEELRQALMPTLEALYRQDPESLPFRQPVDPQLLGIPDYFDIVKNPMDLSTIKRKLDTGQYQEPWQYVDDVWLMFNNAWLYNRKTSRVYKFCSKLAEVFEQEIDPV
Assay: CBP bromodomain binding assay (TR-FRET)
Settings: class symbols
PROPERTY LABEL: EC50

{"RECORD SMILES": "CC(=O)N1C[C@H](c2nc(Nc3ccnc(C)c3)cc(-c3cccnc3)n2)CC[C@@H]1C", "PROPERTY LABEL": "EC50", "REPORTED VALUE": "< 200 nM"}

* * *

Molecular target: BRPF1 (Homo sapiens, UniProt P55201)
Construct: T7 phage strains displaying bromodomains were grown in parallel
Sequence (P55201 628-732 limits assumed): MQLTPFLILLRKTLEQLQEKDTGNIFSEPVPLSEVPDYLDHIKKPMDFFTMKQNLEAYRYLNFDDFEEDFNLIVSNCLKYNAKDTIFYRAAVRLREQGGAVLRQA
Assay: BROMOscan BromoKdMAX

{"RECORD SMILES": "CO[C@H]1CC[C@H](n2c([C@@H]3CCCC(=O)N3c3ccc(F)c(F)c3)nc3cc(-c4c(C)noc4C)ccc32)CC1", "Kd (nM)": 1400}

* * *

Attribute: pKd
Target: BAZ2A (Homo sapiens, UniProt Q9UIF9)
Construct: T7 phage strains displaying bromodomains were grown in parallel
Sequence (Q9UIF9 1793-1897 limits assumed): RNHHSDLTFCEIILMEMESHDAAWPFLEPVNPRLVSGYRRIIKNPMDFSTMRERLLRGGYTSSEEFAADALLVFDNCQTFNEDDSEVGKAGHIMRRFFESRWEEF
Test: BROMOscan BromoKdMAX
pKd: −log10 of the molar value.

{"RECORD SMILES": "CO[C@H]1CC[C@H](n2c([C@@H]3CCCC(=O)N3c3ccc(F)c(F)c3)nc3cc(-c4c(C)noc4C)ccc32)CC1", "pKd": "< 5.00"}
{"RECORD SMILES": "CC(=O)N1C[C@H](c2nc(Nc3cccc(-c4cn(C)nn4)c3)cc(-c3cnccn3)n2)CC[C@@H]1C", "pKd": "< 5.00"}

* * *

Target: BRD4(full-length, short-iso.) (Homo sapiens)
Construct: BRD4 (full-length, short-iso.); purchased DiscoverX; host or cells: T7 phage in E. coli host derived from BL21 (general protocol)
Test: BROMOscan BromoKdMAX
Assay type: binding

{"COMPOUND": "CO[C@H]1CC[C@H](n2c([C@@H]3CCCC(=O)N3c3ccc(F)c(F)c3)nc3cc(-c4c(C)noc4C)ccc32)CC1 [CCS1477]", "Kd": "440 nM"}

* * *

Molecular target: BRD2(1, 2) (Homo sapiens)
Construct: T7 phage strains displaying bromodomains were grown in parallel
Sequence (P25440 71-455 limits assumed): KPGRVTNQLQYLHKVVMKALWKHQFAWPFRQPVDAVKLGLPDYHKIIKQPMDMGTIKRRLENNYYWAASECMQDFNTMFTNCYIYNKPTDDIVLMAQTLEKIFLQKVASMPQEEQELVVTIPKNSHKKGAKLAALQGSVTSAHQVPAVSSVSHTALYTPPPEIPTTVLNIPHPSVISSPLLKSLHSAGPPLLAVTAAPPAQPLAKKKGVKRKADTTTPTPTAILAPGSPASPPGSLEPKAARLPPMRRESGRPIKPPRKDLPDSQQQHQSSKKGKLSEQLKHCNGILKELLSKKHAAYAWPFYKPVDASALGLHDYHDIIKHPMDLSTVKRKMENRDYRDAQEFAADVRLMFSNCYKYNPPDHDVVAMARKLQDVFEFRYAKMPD
Assay: BROMOscan BromoKdMAX

{"RECORD SMILES": "CO[C@H]1CC[C@H](n2c([C@@H]3CCCC(=O)N3c3ccc(F)c(F)c3)nc3cc(-c4c(C)noc4C)ccc32)CC1", "TEST SYSTEM": "BRD2(1, 2) (Homo sapiens)", "Kd [nM]": 610}

* * *

Attribute: pKd
Target: PBRM1(2) (Homo sapiens, UniProt Q86U86)
Construct: T7 phage strains displaying bromodomains were grown in parallel
Sequence (Q86U86 177-287 limits assumed): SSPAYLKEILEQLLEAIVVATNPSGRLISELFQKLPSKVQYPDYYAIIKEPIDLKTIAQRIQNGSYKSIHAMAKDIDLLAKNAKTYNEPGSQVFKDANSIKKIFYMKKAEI
Experiment: BROMOscan BromoKdMAX
pKd: −log10 of the molar value.

{"COMPOUND": "CC(=O)N1C[C@H](c2nc(Nc3cccc(-c4cn(C)nn4)c3)cc(-c3cnccn3)n2)CC[C@@H]1C [Compound C]", "pKd": "< 5.00"}
{"COMPOUND": "CO[C@H]1CC[C@H](n2c([C@@H]3CCCC(=O)N3c3ccc(F)c(F)c3)nc3cc(-c4c(C)noc4C)ccc32)CC1 [CCS1477]", "pKd": "< 5.00"}
